Biological target: LFA-1 binding to ICAM-1 (Homo sapiens, UniProt P05107+P20701)
Sequence (P20701 26-1170): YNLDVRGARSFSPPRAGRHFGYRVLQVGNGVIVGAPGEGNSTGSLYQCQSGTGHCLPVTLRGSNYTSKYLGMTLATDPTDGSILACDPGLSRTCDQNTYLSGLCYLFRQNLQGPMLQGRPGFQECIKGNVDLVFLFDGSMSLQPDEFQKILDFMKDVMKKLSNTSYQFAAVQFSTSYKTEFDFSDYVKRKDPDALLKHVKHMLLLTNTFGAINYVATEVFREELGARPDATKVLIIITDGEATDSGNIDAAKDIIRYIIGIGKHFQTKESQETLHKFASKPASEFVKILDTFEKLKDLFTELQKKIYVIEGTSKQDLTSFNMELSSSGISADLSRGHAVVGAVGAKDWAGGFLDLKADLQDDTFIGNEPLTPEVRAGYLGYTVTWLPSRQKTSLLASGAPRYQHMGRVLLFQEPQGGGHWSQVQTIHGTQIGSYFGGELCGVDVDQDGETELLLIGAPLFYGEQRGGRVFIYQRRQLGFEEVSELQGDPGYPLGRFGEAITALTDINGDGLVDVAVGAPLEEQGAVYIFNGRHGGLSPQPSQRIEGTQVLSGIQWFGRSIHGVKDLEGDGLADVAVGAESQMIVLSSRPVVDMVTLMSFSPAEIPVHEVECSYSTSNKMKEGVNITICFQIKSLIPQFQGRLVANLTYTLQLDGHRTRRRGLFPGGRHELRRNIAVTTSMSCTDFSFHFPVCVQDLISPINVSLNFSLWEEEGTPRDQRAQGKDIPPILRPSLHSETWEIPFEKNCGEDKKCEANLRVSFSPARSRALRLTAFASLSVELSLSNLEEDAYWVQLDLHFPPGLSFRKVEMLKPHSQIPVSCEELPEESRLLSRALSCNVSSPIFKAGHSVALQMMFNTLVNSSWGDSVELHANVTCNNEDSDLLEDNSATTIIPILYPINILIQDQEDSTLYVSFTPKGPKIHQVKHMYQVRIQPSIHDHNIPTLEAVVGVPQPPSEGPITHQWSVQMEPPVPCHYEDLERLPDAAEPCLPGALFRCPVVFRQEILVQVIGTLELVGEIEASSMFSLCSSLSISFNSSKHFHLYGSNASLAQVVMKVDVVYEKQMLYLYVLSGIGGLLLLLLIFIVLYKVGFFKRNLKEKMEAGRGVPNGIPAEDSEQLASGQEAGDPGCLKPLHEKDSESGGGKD
Sequence (P05107 23-769): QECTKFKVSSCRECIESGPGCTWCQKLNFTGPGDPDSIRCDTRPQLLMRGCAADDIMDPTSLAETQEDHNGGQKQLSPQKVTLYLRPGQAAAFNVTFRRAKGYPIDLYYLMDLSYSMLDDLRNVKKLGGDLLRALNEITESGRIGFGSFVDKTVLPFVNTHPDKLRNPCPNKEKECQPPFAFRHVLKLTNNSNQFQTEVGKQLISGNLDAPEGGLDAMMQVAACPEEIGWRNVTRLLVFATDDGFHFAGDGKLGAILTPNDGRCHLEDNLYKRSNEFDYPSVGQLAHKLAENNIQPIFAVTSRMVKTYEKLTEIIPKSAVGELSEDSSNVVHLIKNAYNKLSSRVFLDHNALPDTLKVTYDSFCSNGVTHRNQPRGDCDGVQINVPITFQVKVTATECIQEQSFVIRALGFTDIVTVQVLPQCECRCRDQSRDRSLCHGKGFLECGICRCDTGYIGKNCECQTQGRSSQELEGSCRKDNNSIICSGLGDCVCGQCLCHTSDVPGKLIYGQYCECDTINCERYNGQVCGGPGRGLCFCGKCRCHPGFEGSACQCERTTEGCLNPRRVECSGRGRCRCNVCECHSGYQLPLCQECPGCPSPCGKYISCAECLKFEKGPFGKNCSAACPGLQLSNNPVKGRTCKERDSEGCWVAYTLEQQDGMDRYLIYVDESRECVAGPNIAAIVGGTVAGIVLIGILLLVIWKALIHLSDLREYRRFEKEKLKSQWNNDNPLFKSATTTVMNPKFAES
Assay: Inhibition of LFA-1 binding to ICAM-1 (LFA-1/Biotin-sICAM-1 AlphaScreen molecular assay)
Conditions: highest compound concentration 1 μM in 1% DMSO, 37° C., 90 minutes
From the text: Assay to Determine Inhibition of LFA-1 Binding to ICAM-1 This assay protocol is designed to study the direct antagonism, by a test compound, of the interaction of ICAM-1 with the Leukointegrin CD18/CD11a (LFA-1). […]
Each entry below lists one item and its recorded pIC50 value.
// returns pIC50 (minus log10 of molar concentration), number only

The following molecules have reported results that may help.
INSERT INTO assay_data (given_smiles, quantitative_result) VALUES
  ('C[C@@]1(Cc2ccc(C#N)cc2)C(=O)N(c2cc(Cl)cc(Cl)c2)c2ncc(C(=O)NC3(C(=O)NC4(c5ccc(C(=O)NC6CCC6)cn5)CC4)CC3)n21', 9.13),
  ('C[C@@H](NC(=O)c1cccc(C2(NC(=O)C3(NC(=O)c4cnc5n4[C@](C)(Cc4ccc(C#N)cc4)C(=O)N5c4cc(Cl)cc(Cl)c4)CC3)CC2)n1)C(N)=O', 8.89);

Turning now to a further record.
Complete the entry with pIC50 for `C[C@@]1(Cc2ccc(C#N)cc2)C(=O)N(c2cc(Cl)cc(Cl)c2)c2ncc(C(=O)NC3(C(=O)NC4(c5cc(C(=O)NCCc6ccccc6)ccn5)CC4)CC3)n21` 8.40

----------
biological target: LFA-1 binding to ICAM-1 (Homo sapiens, UniProt P05107+P20701); test: Inhibition of LFA-1 binding to ICAM-1 (LFA-1/Biotin-sICAM-1 AlphaScreen molecular assay); settings: highest compound concentration 1 μM in 1% DMSO, 37° C., 90 minutes
Attribute: IC50
Just the number in nM, nothing appended.

INSERT INTO assay_data (compound, assay_system, quantitative_result) VALUES
  ('CN(C)C1CCN(C(=O)c2ccnc(C3(NC(=O)C4(NC(=O)c5cnc6n5[C@](C)(Cc5ccc(C#N)cc5)C(=O)N6c5cc(Cl)cc(Cl)c5)CC4)CC3)c2)C1 (some centres unmarked) [Compound 1]', 'LFA-1 binding to ICAM-1 (Homo sapiens, UniProt P05107+P20701)', 1.4);

Report measured IC50; entry is C[C@@]1(Cc2ccc(C#N)cc2)C(=O)N(c2cc(Cl)cc(Cl)c2)c2ncc(C(=O)NC3(C(=O)NC4(c5ccc(C(=O)N6CCC6)cn5)CC4)CC3)n21 [compound 90] 0.29

Please look at this compound and report its IC50: CC(=O)N1CCN(C(=O)c2cccc(C3(NC(=O)C4(NC(=O)c5cnc6n5[C@](C)(Cc5ccc(C#N)cc5)C(=O)N6c5cc(Cl)cc(Cl)c5)CC4)CC3)n2)CC1 [compound 22] 2.1

Note down IC50 recorded for C[C@@]1(Cc2ccc(C#N)cc2)C(=O)N(c2cc(Cl)cc(Cl)c2)c2ncc(C(=O)NC3(C(=O)NC4(c5cccc(C(=O)N6CCCCC6CO)n5)CC4)CC3)n21 (some centres unmarked) [compound 125] 0.28

Hello, please tell me recorded IC50 for this one: CC(C)(NC(=O)c1ccc(C2(NC(=O)C3(NC(=O)c4cnc5n4[C@](C)(Cc4ccc(C#N)cc4)C(=O)N5c4cc(Cl)cc(Cl)c4)CC3)CC2)nc1)c1ccccc1 [compound 152] 0.62

Hello, please tell me recorded IC50 for this one: C[C@H](NC(=O)c1ccc(C2(NC(=O)C3(NC(=O)c4cnc5n4[C@](C)(Cc4ccc(C#N)cc4)C(=O)N5c4cc(Cl)cc(Cl)c4)CC3)CC2)nc1)c1ccccc1 [compound 33] 2.7

Consider the compound C[C@@H](NC(=O)c1ccnc(C2(NC(=O)C3(NC(=O)c4cnc5n4[C@](C)(Cc4ccc(C#N)cc4)C(=O)N5c4cc(Cl)cc(Cl)c4)CC3)CC2)c1)C(N)=O [compound 166] . State its measured IC50. 3

Look up IC50 of C[C@@]1(Cc2ccc(C#N)cc2)C(=O)N(c2cc(Cl)cc(Cl)c2)c2ncc(C(=O)NC3(C(=O)NC4(c5cc(C(=O)NCC(=O)O)ccn5)CC4)CC3)n21 [compound 131] and report it. 0.45

Fill in IC50 for record CN(C)C(=O)c1ccnc(C2(NC(=O)C3(NC(=O)c4cnc5n4[C@](C)(Cc4ccc(C#N)cc4)C(=O)N5c4cc(Cl)cc(Cl)c4)CC3)CC2)c1 [compound 38] 0.87

Query IC50 for CC(=O)NC1CCN(C(=O)c2cccc(C3(NC(=O)C4(NC(=O)c5cnc6n5[C@](C)(Cc5ccc(C#N)cc5)C(=O)N6c5cc(Cl)cc(Cl)c5)CC4)CC3)n2)C1 (some centres unmarked) [compound 15] 1.5

Identify the reported IC50 for the following entry. C[C@@]1(Cc2ccc(C#N)cc2)C(=O)N(c2cc(Cl)cc(Cl)c2)c2ncc(C(=O)NC3(C(=O)NC4(c5cccc(C(=O)N6CC(O)C6)n5)CC4)CC3)n21 [compound 51] 0.58

----------
target: LFA-1 binding to ICAM-1 (Homo sapiens, UniProt P05107+P20701); experiment: Inhibition of LFA-1 binding to ICAM-1 (LFA-1/Biotin-sICAM-1 AlphaScreen molecular assay); details: highest compound concentration 1 μM in 1% DMSO, 37° C., 90 minutes
The reader will find reported IC50 values listed item by item below.
Give the number; nM is assumed, so skip it.

INSERT INTO measurements (molecule, assay_system, units_text, quantitative_result) VALUES
  ('CN(C)CCNC(=O)c1ccc(C2(NC(=O)C3(NC(=O)c4cnc5n4[C@](C)(Cc4ccc(C#N)cc4)C(=O)N5c4cc(Cl)cc(Cl)c4)CC3)CC2)nc1', 'LFA-1 binding to ICAM-1 (Homo sapiens, UniProt P05107+P20701)', 'nM', 0.82),
  ('CC(NC(=O)c1ccnc(C2(NC(=O)C3(NC(=O)c4cnc5n4[C@](C)(Cc4ccc(C#N)cc4)C(=O)N5c4cc(Cl)cc(Cl)c4)CC3)CC2)c1)c1ccccn1 (some centres unmarked)', 'LFA-1 binding to ICAM-1 (Homo sapiens, UniProt P05107+P20701)', 'nM', 0.29),
  ('C[C@@]1(Cc2ccc(C#N)cc2)C(=O)N(c2cc(Cl)cc(Cl)c2)c2ncc(C(=O)NC3(C(=O)NC4(c5cccc(C(=O)NCC(N)=O)n5)CC4)CC3)n21', 'LFA-1 binding to ICAM-1 (Homo sapiens, UniProt P05107+P20701)', 'nM', 0.5),
  ('CC(NC(=O)c1ccc(C2(NC(=O)C3(NC(=O)c4cnc5n4[C@](C)(Cc4ccc(C#N)cc4)C(=O)N5c4cc(Cl)cc(Cl)c4)CC3)CC2)nc1)c1ccccn1 (some centres unmarked) [compound 160]', 'LFA-1 binding to ICAM-1 (Homo sapiens, UniProt P05107+P20701)', 'nM', 0.37);

Quote IC50 reported for C[C@@]1(Cc2ccc(C#N)cc2)C(=O)N(c2cc(Cl)cc(Cl)c2)c2ncc(C(=O)NC3(C(=O)NC4(c5ccc(C(=O)N6CCCC(CO)C6)cn5)CC4)CC3)n21 (some centres unmarked) please. 0.43

----------
molecular target: LFA-1 binding to ICAM-1 (Homo sapiens, UniProt P05107+P20701); test: Inhibition of LFA-1 binding to ICAM-1 (LFA-1/Biotin-sICAM-1 AlphaScreen molecular assay); conditions: highest compound concentration 1 μM in 1% DMSO, 37° C., 90 minutes
The label is yes for IC50 below 0.8 nM and no for IC50 equal to or exceeding 0.8 nM.

INSERT INTO results (compound, label_value) VALUES
  ('C[C@@]1(Cc2ccc(C#N)cc2)C(=O)N(c2cc(Cl)cc(Cl)c2)c2ncc(C(=O)NC3(C(=O)NC4(c5ccc(C(=O)NCCn6ccnc6)cn5)CC4)CC3)n21', 'yes'),
  ('C[C@@]1(Cc2ccc(C#N)cc2)C(=O)N(c2cc(Cl)cc(Cl)c2)c2ncc(C(=O)NC3(C(=O)NC4(c5cccc(C(=O)N6CCNCC6)n5)CC4)CC3)n21', 'no'),
  ('C[C@@]1(Cc2ccc(C#N)cc2)C(=O)N(c2cc(Cl)cc(Cl)c2)c2ncc(C(=O)NC3(C(=O)NC4(c5ccc(C(=O)NCCO)cn5)CC4)CC3)n21', 'yes'),
  ('CC(C)(O)CNC(=O)c1ccnc(C2(NC(=O)C3(NC(=O)c4cnc5n4[C@](C)(Cc4ccc(C#N)cc4)C(=O)N5c4cc(Cl)cc(Cl)c4)CC3)CC2)c1', 'yes'),
  ('C[C@@]1(Cc2ccc(OC(F)(F)F)cc2)C(=O)N(c2cc(Cl)cc(Cl)c2)c2ncc(C(=O)NC3(C(=O)NC4(c5ccc(C(N)=O)cn5)CC4)CC3)n21', 'no');

Is it true that IC50 reported for `CC(=O)NCCNC(=O)c1cccc(C2(NC(=O)C3(NC(=O)c4cnc5n4[C@](C)(Cc4ccc(C#N)cc4)C(=O)N5c4cc(Cl)cc(Cl)c4)CC3)CC2)n1` is less than 0.8 nM? yes

Does the reported IC50 of `CCN(CC)C(=O)c1ccnc(C2(NC(=O)C3(NC(=O)c4cnc5n4[C@](C)(Cc4ccc(C#N)cc4)C(=O)N5c4cc(Cl)cc(Cl)c4)CC3)CC2)c1` stay below 0.8 nM? yes

Consider `C[C@@]1(Cc2ccc(C#N)cc2)C(=O)N(c2cc(Cl)cc(Cl)c2)c2ncc(C(=O)NC3(C(=O)NC4(c5ccc(C(=O)NCCc6ccncc6)cn5)CC4)CC3)n21` . Does its IC50 lie strictly below 0.8 nM? no

Quick check: does `C[C@H](NC(=O)c1cccc(C2(NC(=O)C3(NC(=O)c4cnc5n4[C@](C)(Cc4ccc(C#N)cc4)C(=O)N5c4cc(Cl)cc(Cl)c4)CC3)CC2)n1)c1ccccc1` have IC50 under 0.8 nM? yes

Is IC50 of `C[C@@H](NC(=O)c1ccc(C2(NC(=O)C3(NC(=O)c4cnc5n4[C@](C)(Cc4ccc(C#N)cc4)C(=O)N5c4cc(Cl)cc(Cl)c4)CC3)CC2)nc1)c1ccccc1` strictly below 0.8 nM? no

Is it true that IC50 reported for `CC(=O)NCCNC(=O)c1ccc(C2(NC(=O)C3(NC(=O)c4cnc5n4[C@](C)(Cc4ccc(C#N)cc4)C(=O)N5c4cc(Cl)cc(Cl)c4)CC3)CC2)nc1` is less than 0.8 nM? yes

Regarding `C[C@@]1(Cc2ccc(C#N)cc2)C(=O)N(c2cc(Cl)cc(Cl)c2)c2ncc(C(=O)NC3(C(=O)NC4(c5cc(C(=O)NC6CCC6)ccn5)CC4)CC3)n21` , kindly confirm whether its IC50 is beneath 0.8 nM. no

Input `C[C@@]1(Cc2ccc(C#N)cc2)C(=O)N(c2cc(Cl)cc(Cl)c2)c2ncc(C(=O)NC3(C(=O)NC4(c5cc(C(=O)NCCc6cccnc6)ccn5)CC4)CC3)n21` ; condition: IC50 strictly below 0.8 nM. Does it hold? no

Just wondering, is IC50 of CC(NC(=O)c1ccc(C2(NC(=O)C3(NC(=O)c4cnc5n4[C@](C)(Cc4ccc(C#N)cc4)C(=O)N5c4cc(Cl)cc(Cl)c4)CC3)CC2)nc1)c1ccccn1 (stereo partly drawn) [compound 155] below 0.8 nM? yes

Item `C[C@@]1(Cc2ccc(C#N)cc2)C(=O)N(c2cc(Cl)cc(Cl)c2)c2ncc(C(=O)NC3(C(=O)NC4(c5cc(C(=O)N6CCC[C@@H]6C(N)=O)ccn5)CC4)CC3)n21` : IC50 beneath 0.8 nM, strictly? yes

Find out if reported IC50 for CC(O)CNC(=O)c1ccc(C2(NC(=O)C3(NC(=O)c4cnc5n4[C@](C)(Cc4ccc(C#N)cc4)C(=O)N5c4cc(Cl)cc(Cl)c4)CC3)CC2)nc1 (stereo partly drawn) is less than 0.8 nM yes

Hi there! Is IC50 for CC(CO)NC(=O)c1ccc(C2(NC(=O)C3(NC(=O)c4cnc5n4[C@](C)(Cc4ccc(C#N)cc4)C(=O)N5c4cc(Cl)cc(Cl)c4)CC3)CC2)nc1 (stereo partly drawn) below 0.8 nM, do you know? yes

# check: IC50 < 0.8 nM for `C[C@@]1(Cc2ccc(C#N)cc2)C(=O)N(c2cc(Cl)cc(Cl)c2)c2ncc(C(=O)NC3(C(=O)NC4(c5cccc(C(=O)NCCO)n5)CC4)CC3)n21` no

Given the entry `C[C@@]1(Cc2ccc(C#N)cc2)C(=O)N(c2cc(Cl)cc(Cl)c2)c2ncc(C(=O)NC3(C(=O)NC4(c5cc(C(=O)NC(CO)CO)ccn5)CC4)CC3)n21` , would its reported IC50 be below 0.8 nM? yes

IC50 under 0.8 nM? Item: CC(NC(=O)c1cccc(C2(NC(=O)C3(NC(=O)c4cnc5n4[C@](C)(Cc4ccc(C#N)cc4)C(=O)N5c4cc(Cl)cc(Cl)c4)CC3)CC2)n1)c1ccncc1 (stereo partly drawn) no

Does the reported IC50 of the following compound sit strictly below 0.8 nM? C[C@@]1(Cc2ccc(C#N)cc2)C(=O)N(c2cc(Cl)cc(Cl)c2)c2ncc(C(=O)NC3(C(=O)NC4(c5cc(C(=O)NCC(O)CO)ccn5)CC4)CC3)n21 (stereo partly drawn) yes
